Values compiled from patent US20240270762A1.

The following compounds are shown together with reported MIC values.
Test system: A. baumannii CDC-0033
Test: microbe, parasite or virus in culture
Format: cell-based
Details: Acinetobacter baumannii, CDC0033, read-out: MIC, A. baumannii CDC-0033

compound	MIC
O=C(NCCN1CCN(C(=O)NC(C(=O)N[C@H]2Cc3ccc(F)c(C(=O)O)c3OB2O)c2cc(F)c(O)c(O)c2Cl)C1=O)c1ccccc1 (stereo partly shown) [Example 242]	2 to 4 µg/mL
O=C(NCCCN1CCN(C(=O)NC(C(=O)N[C@H]2Cc3ccc(F)c(C(=O)O)c3OB2O)c2cc(F)c(O)c(O)c2Cl)C(=O)C1=O)c1ccc(O)c(F)c1Cl (stereo partly shown) [Example 418]	< 1 µg/mL
O=C(O)c1c(F)ccc2c1OB(O)[C@@H](NC(=O)[C@H](NC(=O)N1CCN(C3CCN(C(=O)c4ccncc4)CC3)C1=O)c1cc(F)c(O)c(O)c1Cl)C2 [Example 461]	< 1 µg/mL
O=C(O)c1c(F)ccc2c1OB(O)[C@@H](NC(=O)[C@H](NC(=O)N1CCN(C3CCN(C(=O)c4c(F)ccc(O)c4F)CC3)C1=O)c1cc(F)c(O)c(O)c1Cl)C2 (single isomer, unassigned) [Example 439]	< 1 µg/mL

====

The following compounds are shown together with reported MIC values.
System: B. humptydooensis ATCC BAA-2767
Test: microbe, parasite or virus in culture
Format: cell-based
Conditions: Burkholderia humptydooensis, ATCCBAA2767, read-out: Minimum inhibitory concentration (MIC), B. humptydooensis ATCC BAA-2767
measure: MIC

compound	measure	val
CN(CCN1CCN(C(=O)N[C@@H](C(=O)N[C@H]2Cc3ccc(F)c(C(=O)O)c3OB2O)c2cc(F)c(O)c(O)c2Cl)C(=O)C1=O)Cc1cccc(C(N)=O)c1	MIC	< 1 µg/mL
NCc1ccc(C(=O)N2CCC(N3CCN(C(=O)NC(C(=O)N[C@H]4Cc5ccc(F)c(C(=O)O)c5OB4O)c4cc(F)c(O)c(O)c4Cl)C3=O)CC2)cc1 (single isomer, unassigned)	MIC	< 1 µg/mL
O=C(NCCCS(=O)(=O)N1CCN(C(=O)NC(C(=O)N[C@H]2Cc3ccc(F)c(C(=O)O)c3OB2O)c2cc(F)c(O)c(O)c2Cl)C1=O)c1ccncc1 (stereo partly shown)	MIC	2 to 4 µg/mL
O=C(NCCS(=O)(=O)N1CCN(C(=O)N[C@H](C(=O)N[C@H]2Cc3ccc(F)c(C(=O)O)c3OB2O)c2ccc(P(=O)(O)O)cc2)C1=O)c1ccc(O)c(O)c1Cl	MIC	> 128 µg/mL
O=C(O)c1c(F)ccc2c1OB(O)[C@@H](NC(=O)[C@@H](NC(=O)N1CCN(Cc3ccc(O)c(O)c3Cl)C(=O)C1=O)c1ccc(P(=O)(O)O)c(F)c1F)C2	MIC	< 1 µg/mL
O=C(O)c1c(F)ccc2c1OB(O)[C@@H](NC(=O)C(NC(=O)N1CCN(C3CCN(C(=O)Nc4cccc(O)c4)CC3)C(=O)C1=O)c1cc(F)c(O)c(O)c1Cl)C2 (stereo partly shown)	MIC	2 to 4 µg/mL
O=C(NCCN1CCN(C(=O)N[C@@H](C(=O)N[C@H]2Cc3ccc(F)c(C(=O)O)c3OB2O)c2cc(F)c(O)c(O)c2Cl)C(=O)C1=O)Nc1ccncc1	MIC	< 1 µg/mL

====

System: N. gonorrhoeae WHO M
Assay: Liquid broth MIC in Fastidious broth
Conditions: Neisseria gonorrhoeae, read-out: Minimum Inhibitory Concentration, WHO M
measure: MIC

compound	measure	val
O=C(NCCCN1CCN(C(=O)N[C@H](C(=O)N[C@H]2Cc3ccc(F)c(C(=O)O)c3OB2O)c2cc(F)c(O)c(O)c2Cl)C(=O)C1=O)c1ccnc(F)c1F	MIC	> 64 µg/mL
O=C(NCCN1CCN(C(=O)NC(C(=O)N[C@H]2Cc3ccc(F)c(C(=O)O)c3OB2O)c2cc(F)c(O)c(O)c2Cl)C1=O)Nc1cccnc1 (stereo partly shown)	MIC	16 to 32 µg/mL
O=C(NCCCS(=O)(=O)N1CCN(C(=O)NC(C(=O)N[C@H]2Cc3ccc(F)c(C(=O)O)c3OB2O)c2cc(F)c(O)c(O)c2Cl)C1=O)Nc1ccc(O)cc1 (stereo partly shown)	MIC	4 to 8 µg/mL
O=C(NCCCN1CCN(C(=O)N[C@@H](C(=O)N[C@H]2Cc3ccc(F)c(C(=O)O)c3OB2O)c2cc(F)c(O)c(O)c2Cl)C1=O)Nc1cccc(O)c1	MIC	4 to 8 µg/mL
